Tested on: HT-1080
Assay: Modulatory profiling: Alamar Blue viability, lethal compound cotreated with death modulator (EC50, AUC)
Format: cell-based
Set-up: unit not given beside the values
Details: HT-1080, modulator NAD+
metric.name: AUC HT.NAD+

molecule="CC(C)(C)C1CCc2c(sc(NC(=O)CN3CCNCC3)c2C(N)=O)C1 (stereo not drawn)" observed=0.04087
molecule="COc1c2c(cc3c1C(CC(=O)/C=C/c1ccccc1)[N+](C)(C)CC3)OCO2 (stereo not drawn)" observed=0.003357
molecule=C/C(=N\Nc1ncc(Cl)cc1Cl)c1ccccn1 observed=−0.1971
molecule="COc1ccc(C(=O)C(CN2CCCC2)c2ccccc2)cc1 (stereo not drawn)" observed=0.004195
molecule=COc1nn(-c2ccccc2)c(=O)c(Cl)c1Cl observed=−0.0002222
molecule="COC(=O)c1ccc([C@@H]2c3[nH]c4ccccc4c3C[C@@H](C(=O)OC)N2C(=O)CCl)cc1 [RSL3, reference compound]" observed=0.007883
molecule=CCOC(=O)[C@@H]1[C@@H](c2ccccc2)C(=O)CCN1NC(=O)c1ccccc1 observed=0.02662
molecule=O=S(=O)(c1ccc2c(c1)C(=NO)c1cc(S(=O)(=O)N3CCCCC3)ccc1-2)N1CCCCC1 observed=0.02315
molecule=COc1cccc2c1C(=O)c1c(O)c3c(c(O)c1C2=O)C[C@@](O)(C(C)=O)C[C@@H]3O[C@H]1C[C@H](N)[C@H](O)[C@H](C)O1 observed=0.1305
molecule=Cc1cccc(-n2ncc(Cl)c(Cl)c2=O)c1 observed=0.01014
molecule=Cc1ccc(O)c(/N=C/C=C/c2cccc(Br)c2)c1 observed=−0.0034
molecule=CC(/C=C/C(=O)NO)=C\[C@@H](C)C(=O)c1ccc(N(C)C)cc1 observed=0.03432
molecule=CC(C)[C@@H]1NC(=O)[C@H](C)OC(=O)[C@@H](C(C)C)NC(=O)[C@@H](C(C)C)OC(=O)[C@H](C(C)C)NC(=O)[C@H](C)OC(=O)[C@@H](C(C)C)NC(=O)[C@@H](C(C)C)OC(=O)[C@H](C(C)C)NC(=O)[C@H](C)OC(=O)[C@@H](C(C)C)NC(=O)[C@@H](C(C)C)OC1=O observed=0.07833
molecule="CCOc1ccccc1-n1c(C(C)N2CCN(C(=O)COc3ccc(Cl)cc3)CC2)nc2ccccc2c1=O (stereo not drawn) [erastin, reference compound]" observed=−0.02996
molecule=O=C1c2ccccc2-c2onc3ccc(Oc4ccccc4)c1c23 observed=0.04899

###

Tested on: HT-1080
Assay: Modulatory profiling: Alamar Blue viability, lethal compound cotreated with death modulator (EC50, AUC)
Format: cell-based
Conditions: HT-1080, modulator NMMA
Parameter AUC HT.NMMA: see the listing below.
metric.name: AUC HT.NMMA

compound=O=c1c(Cl)c(Cl)cnn1-c1ccc(Cl)cc1 observed=−0.002298
compound=O=C1c2c(O)ccc(O)c2C(=O)c2c(NCCNCCO)ccc(NCCNCCO)c21 observed=0.0236
compound="CC1CC(C)(C)Nc2ccc(OC(=O)c3ccco3)cc21 (stereo not shown)" observed=−0.007501
compound="CCc1ccc(/C=C2/SC(=O)N(CCC(C)NCCCN3CCOCC3)C2=O)cc1 (stereo not shown)" observed=0.001557
compound="COc1ccc(C(=O)C(CN2CCCC2)c2ccccc2)cc1 (stereo not shown)" observed=−0.004443
compound=O=C1C(Cl)=C(N2CCOCC2)C(=O)C(Cl)=C1N1CCOCC1 observed=−0.02554
compound=Cc1ccc(O)c(/N=C/C=C/c2cccc(Br)c2)c1 observed=−0.01331
compound=CC(C)C[C@H](NC(=O)[C@H](CC(C)C)NC(=O)[C@H](CC(C)C)NC(=O)OCc1ccccc1)B(O)O observed=−0.004229
compound=COc1cccc2c1C(=O)c1c(O)c3c(c(O)c1C2=O)C[C@@](O)(C(=O)CO)C[C@@H]3O[C@H]1C[C@H](N)[C@H](O)[C@H](C)O1 observed=0.02832
compound="C[C@@H]1C[C@@H]([C@H](O)CC2CC(=O)NC(=O)C2)C(=O)[C@@H](C)C1 [cycloheximide, Cycloheximide, reference compound]" observed=0.01986
compound=[N-]=[N+]=[N-].[Na+] observed=0.002822
compound=CCCS(=O)(=O)c1nnnn1-c1cccc(OC)c1 observed=−0.01943
compound=Nc1ccccc1NC(=O)c1ccc(CNC(=O)OCc2cccnc2)cc1 observed=−0.00333
compound="COc1c2c(cc3c1C(CC(=O)/C=C/c1ccccc1)[N+](C)(C)CC3)OCO2 (stereo not shown)" observed=−0.01509
compound="CC(C)C1CC(CCNCc2ccc3c(c2)OCO3)(c2ccccc2)CCO1 (stereo not shown)" observed=0.01562
compound="OCCNCC(O)Cn1c2ccc(Br)cc2c2cc(Br)ccc21 (stereo not shown)" observed=−0.02442
compound=CN(C)CCCOS(=O)(=O)c1ccc(N2CCC(c3ccc(Cl)cc3)=N2)cc1 observed=−0.006901
compound=Cc1cccc(Cn2ncc(Cl)c(Cl)c2=O)c1 observed=−0.01091
compound=COc1nn(-c2ccccc2)c(=O)c(Cl)c1Cl observed=−0.001084
compound=Cc1cccc(-n2ncc(Cl)c(Cl)c2=O)c1 observed=0.01444
compound=CC[C@]1(O)C[C@@H]2CN(CCc3c([nH]c4ccccc34)[C@@](C(=O)OC)(c3cc4c(cc3OC)N(C)[C@H]3[C@@](O)(C(=O)OC)[C@H](OC(C)=O)[C@]5(CC)C=CCN6CC[C@]43[C@@H]65)C2)C1 observed=−0.003516
compound="CN(C)CC(O)Cn1c2ccc(Cl)cc2c2cc(Cl)ccc21 (stereo not shown)" observed=−0.003405
compound=CC(C)C[C@H](NC(=O)[C@H](Cc1ccccc1)NC(=O)c1cnccn1)B(O)O observed=0.01354
compound="C[S+]([O-])c1nc(-c2ccc(Br)cc2)cc(-c2ccccc2)c1C#N (stereo not shown)" observed=−0.02639
compound=O=S(=O)(c1ccc2c(c1)C(=NO)c1cc(S(=O)(=O)N3CCCCC3)ccc1-2)N1CCCCC1 observed=−0.01475
compound=COc1cc2c(c(OC)c1OC)-c1ccc(OC)c(=O)cc1[C@@H](NC(C)=O)CC2 observed=0.008585
compound=COc1ccc(-n2nnnc2S(=O)(=O)CC(=O)N2CCCCC2)cc1 observed=−0.01902
compound=Cc1cc(C)c2c(=O)n(CC(=O)NCCCN3CCN(c4ccccc4F)CC3)sc2n1 observed=0.004196
compound=O=C(CCl)N(c1ccccc1)c1c[nH]c2ccccc12 observed=−0.04048
compound=N/C(Cc1ccc(Cl)cc1)=N\OC(=O)c1cccc2ccccc12 observed=−0.005818
compound=CCCCNc1cc(C)nc(NCc2ccccc2)n1 observed=−0.02918
compound=CC1=CC(C)(C)Nc2ccc(OC(=O)c3ccco3)cc21 observed=−0.03029
compound=CC1=CC(C)(C)Nc2ccc(OC(=O)c3cccnc3)cc21 observed=−0.01195
compound="CC1CC2=C(CC1CNCCCN(C)C)C(C)(C)CCC2 (stereo not shown)" observed=−0.009692
